All figures here come from patent US7973062B2.

Tested on: LNCaP androgen-responsive prostate cancer cells
Experiment: MTT cell viability assay, LNCaP cells
Type: cell-based
Conditions: 48 h
Procedure: Cell Counting and Cell Viability Assay. LNCaP or PC-3 cells were placed in six-well plates (2.5×10^5 cells/well) in 10% FBS-supplemented RPMI 1640 for 24 h, and treated with various concentrations of compound 12 for additional 24, 48 and 72 h. Cells were then trypsinized and counted by using a Coulter counter (Model Z1 D/T, Beckman Coulter, Fullerton, Calif.). […] Absorbance was determined at 570 nm by a 96-well plate reader.
propertyLabel: inhibition of LNCaP cell viability (in words)

| structureString | assayTarget | readoutValue |
| --- | --- | --- |
| CC1(CN2C(=O)S/C(=C\c3ccc(O)c(C(F)(F)F)c3)C2=O)CCCCC1 | LNCaP androgen-responsive prostate cancer cells | optimal agents |
| CC1(CN2C(=O)S/C(=C\c3cc(Br)c(O)c(Br)c3)C2=O)CCCCC1 | LNCaP androgen-responsive prostate cancer cells | optimal agents |

* * *

# pIC50 listing for each entry below
test system: androgen receptor (AR) expression; assay: Western blot analysis of AR protein expression in LNCaP cells; assay type: cell-based; settings: 72-h exposure, Western blot (FIG. 4C), read-out: IC50 for suppressing AR expression
pIC50: −log10 of the molar value.

| structureString | pIC50 |
| --- | --- |
| CC1(CN2C(=O)S/C(=C\c3ccc(O)c(C(F)(F)F)c3)C2=O)CCCCC1 | ~5.70 |
| CC1(CN2C(=O)S/C(=C\c3cc(Br)c(O)c(Br)c3)C2=O)CCCCC1 | ~5.40 |
